// reported log10 Ki per item
Biological target: human CCR5 (Homo sapiens, UniProt P51681)
Construct: expressed in transfected cells; host or cells: CHO cells co-expressing Gα16, grown under puromycin and zeocin selection; membrane preparation
Sequence (P51681 whole entry): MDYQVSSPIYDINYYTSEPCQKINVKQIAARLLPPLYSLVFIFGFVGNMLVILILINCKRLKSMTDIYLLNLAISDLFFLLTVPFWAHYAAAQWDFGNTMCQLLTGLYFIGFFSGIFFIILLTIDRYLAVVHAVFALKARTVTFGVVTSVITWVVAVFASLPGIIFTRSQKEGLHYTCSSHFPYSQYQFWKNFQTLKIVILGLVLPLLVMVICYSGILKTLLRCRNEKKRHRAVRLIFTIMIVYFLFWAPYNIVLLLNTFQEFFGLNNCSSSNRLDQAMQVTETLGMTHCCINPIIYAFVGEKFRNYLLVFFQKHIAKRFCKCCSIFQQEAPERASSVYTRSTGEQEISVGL
Test: CCR5 receptor membrane binding assay (CHO (Gα16) human CCR5 membranes, [125I]RANTES, SPA beads)
Conditions: 6 h, read-out: hKi [nM] (CCR5)
Procedure: The above exemplary substances have been tested for binding to CCR5 using a binding assay as outlined herein below: CHO, (Gα16) human CCR5 cells were cultured under standardized conditions at 37° C. and 5% CO2 in a humidified incubator. […] Test compounds dissolved in 100% DMSO to a concentration of 10 mM and are further diluted with 100% DMSO to 1 mM. […] Bound radioactivity was determined by scintillation counter after 6 h. […]
Log scale reminder: Ki in nM, then log10 taken.

Task: Tell us which log10 Ki value is on record for Cc1nc(Nc2cccc(C(F)(F)F)c2)c(C)c(C(=O)N2CCC(N3CCO[C@H]4COCC[C@H]43)CC2)n1 [Example 30]
Output: 3.00

Task: In one line, give reported log10 Ki of the entry Cc1c(NCc2ccc(C(C)(C)C)cc2)ncnc1C(=O)N1CCC(N2CC3CN(S(C)(=O)=O)CC3C2)CC1 (centres unmarked) [Example 42] .
Output: 3.26

Task: State its log10 Ki: Cc1nc(Nc2ccc(Cl)c(Cl)c2)c(C)c(C(=O)N2CCC(N3CCO[C@H]4COCC[C@H]43)CC2)n1 [Example 25]
Output: 2.67

Task: Specify measured log10 Ki for Cc1c(Nc2ccc(Cl)c(Cl)c2)ncnc1C(=O)N1CCC(N2C[C@H]3C[C@@H](N(C)S(C)(=O)=O)C[C@H]3C2)CC1 [Example 10] .
Output: 1.96

Task: Return value of log10 Ki for input Cc1c(NCc2ccc(C(C)(C)C)cc2)ncnc1C(=O)N1CCC(N2CC3COCC3C2)CC1 (centres unmarked) [Example 45] , no commentary.
Output: 3.61

Task: Give reported log10 Ki value for Cc1c(Nc2ccc(Cl)c(Cl)c2)ncnc1C(=O)N1CCC(N2CCO[C@H]3COCC[C@H]32)CC1 [Example 24]
Output: 2.83

Task: Return reported log10 Ki. Input compound: Cc1ccc([C@@H]2CCC[C@H](CNc3ncnc(C(=O)N4CCC(N5CC6CN(S(C)(=O)=O)CC6C5)CC4)c3C)O2)cc1 (some centres unmarked) [Example 14]
Output: 2.52

Task: State its log10 Ki for this compound: Cc1c(NC[C@H]2CCC[C@@H](c3ccc(OC(F)(F)F)cc3)O2)ncnc1C(=O)N1CCC(N2CCO[C@H]3COCC[C@H]32)CC1 (single isomer, unassigned) [Example 33]
Output: 1.68

Task: Fill in log10 Ki for record Cc1c(C(=O)N2CCC(N3CC4CN(S(C)(=O)=O)CC4C3)CC2)ncnc1N1CCc2ccc(C(F)(F)F)cc2C1 (centres unmarked) [Example 13]
Output: 3.36

Task: Give reported log10 Ki value for Cc1c(NC[C@H]2CCC[C@@H](c3ccc(C(F)(F)F)cc3)O2)ncnc1C(=O)N1CCC(N2CC3COCC3C2)CC1 (some centres unmarked) [Example 17]
Output: 2.51

Task: Tell me log10 Ki reported for Cc1ccc([C@@H]2CCC[C@H](CNc3ncnc(C(=O)N4CCC(N5CC6COCC6C5)CC4)c3C)O2)cc1 (some centres unmarked) [Example 16]
Output: 2.94

Task: Complete the entry with log10 Ki for Cc1c(Nc2ccc(Cl)c(Cl)c2)nc(C2CC2)nc1C(=O)N1CCC(N2CCO[C@H]3COCC[C@H]32)CC1 (single isomer, unassigned) [Example 35a]
Output: 2.20

Task: Identify the reported log10 Ki for the following entry. Cc1c(C(=O)N2CCC(N3CCO[C@@H]4COCC[C@@H]43)CC2)ncnc1N1COc2ccc(C(F)(F)F)cc2C1 (single isomer, unassigned) [Example 41]
Output: 2.66

Task: Look up log10 Ki of Cc1c(Nc2ccc(Cl)c(Cl)c2)nc(C2CC2)nc1C(=O)N1CCC(N2CCO[C@H]3COCC[C@H]32)CC1 [Example 26] and report it.
Output: 2.63

Task: Complete the entry with log10 Ki for Cc1nc(Nc2cccc(C(F)(F)F)c2)c(C)c(C(=O)N2CCC(N3CCO[C@H]4COCC[C@H]43)CC2)n1 (single isomer, unassigned) [Example 40b]
Output: 2.81

Task: Give the reported log10 Ki for this compound. Cc1c(NC[C@H]2CCC[C@@H](c3ccc(C(F)(F)F)cc3)O2)ncnc1C(=O)N1CCC(N2CCOC3COCCC32)CC1 (some centres unmarked) [Example 21]
Output: 2.30

Task: Provide log10 Ki value for the following compound: COc1nc(Nc2cccc(C(F)(F)F)c2)c(C)c(C(=O)N2CCC(N3CCO[C@@H]4COCC[C@@H]43)CC2)n1 (single isomer, unassigned) [Example 36b]
Output: 3.32

Task: Given Cc1c(NCc2ccc(C(C)(C)C)cc2)nc(C(F)(F)F)nc1C(=O)N1CCC(N2CC3COCC3C2)CC1 (centres unmarked) [Example 20] , respond with its log10 Ki.
Output: 3.42

Task: // Input: COc1nc(Nc2cccc(C(F)(F)F)c2)c(C)c(C(=O)N2CCC(N3CCO[C@H]4COCC[C@H]43)CC2)n1 [Example 27] . Output its log10 Ki only.
Output: 3.00

Task: Input Cc1c(C(=O)N2CCC(N3CC4COCC4C3)CC2)ncnc1N1CCc2ccc(C(F)(F)F)cc2C1 (centres unmarked) [Example 32] , output reported log10 Ki.
Output: 3.73

---

Molecular target: CCR2 (Homo sapiens)
Construct: Membranes were prepared from THP-1 cells; endogenous in cells; host or cells: THP-1 (human acute monocytic leukaemia cells), membrane preparation
Sequence (P41597 1-360 isoform P41597-2): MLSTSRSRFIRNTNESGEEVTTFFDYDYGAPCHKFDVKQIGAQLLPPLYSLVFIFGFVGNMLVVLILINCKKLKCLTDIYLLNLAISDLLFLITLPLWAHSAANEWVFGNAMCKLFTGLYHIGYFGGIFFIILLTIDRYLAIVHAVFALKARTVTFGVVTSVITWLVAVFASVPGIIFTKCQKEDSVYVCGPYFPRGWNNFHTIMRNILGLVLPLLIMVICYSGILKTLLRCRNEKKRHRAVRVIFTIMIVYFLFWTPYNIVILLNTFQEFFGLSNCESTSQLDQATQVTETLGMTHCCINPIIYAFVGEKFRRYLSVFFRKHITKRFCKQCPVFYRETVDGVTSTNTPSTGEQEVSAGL
Test: CCR2 receptor membrane binding assay (THP-1 membranes, 125I-MCP-1, SPA beads)
Details: THP-1 cell membranes, 125I-MCP-1, 8 h; read-out: hKi [nM] (CCR2)
parameter: Ki (nM)
Answer with a number only, understood to be in nM.

Completed entries (count: 4):
[
  {
    "molecule": "Cc1c(NC[C@H]2CCC[C@@H](c3ccc(C(F)(F)F)cc3)O2)ncnc1C(=O)N1CCC(N2CC3CN(S(C)(=O)=O)CC3C2)CC1 (stereo partly drawn)",
    "Ki, nM": 1
  },
  {
    "molecule": "COc1nc(Nc2ccc(Cl)c(Cl)c2)c(C)c(C(=O)N2CCC(N3CCO[C@H]4COCC[C@H]43)CC2)n1 [Example 28]",
    "Ki, nM": 0.9
  },
  {
    "molecule": "Cc1ccc2c(c1)CN(c1nc(C)nc(C(=O)N3CCC(N4CCO[C@H]5COCC[C@H]54)CC3)c1C)CC2",
    "Ki, nM": 67
  },
  {
    "molecule": "Cc1ccc([C@@H]2CCC[C@H](CNc3ncnc(C(=O)N4CCC(N5CCOC6COCCC65)CC4)c3C)O2)cc1 (stereo partly drawn)",
    "Ki, nM": 15
  }
]

Task: Assign Ki to the following record: COc1nc(NCc2ccc(C(C)(C)C)cc2)c(C)c(C(=O)N2CCC(N3CC4COCC4C3)CC2)n1 (stereo not drawn)
Output: 58

Task: Let me know recorded Ki for COc1nc(Nc2ccc(Cl)c(Cl)c2)c(C)c(C(=O)N2CCC(N3CCO[C@@H]4COCC[C@@H]43)CC2)n1 (single isomer, unassigned) [Example 37b] , thanks.
Output: 6

Task: Give the reported Ki for this molecule. Cc1c(Nc2cccc(C(F)(F)F)c2)nc(C2CC2)nc1C(=O)N1CCC(N2CCO[C@@H]3COCC[C@@H]32)CC1 (single isomer, unassigned) [Example 39b]
Output: 31

Task: Please report the measured Ki for Cc1c(NCc2ccc(C(C)(C)C)cc2)ncnc1C(=O)N1CCC(N2CC3COCC3C2)CC1 (stereo not drawn)
Output: 36

Task: # return recorded Ki for input Cc1c(NCc2ccc(C(C)(C)C)cc2)ncnc1C(=O)N1CCC(N2CC3CN(S(C)(=O)=O)CC3C2)CC1 (stereo not drawn)
Output: 11
